target desc: EBOV GP ectodomain residues 1-636 (GPec) (Zaire ebolavirus, strain  …, UniProt Q05320)
assay endpoint: binding result

binder: 5.6.c2995 (antibody, V domains shown) VH: QVQLVESGGGVVQPGRSLRLSCAASGFSFSTYGMYWVRQAPGKGLEWVGVIWYDGSEKYHADFVKGRFTMSRDNSKNTLYLQMNSLRVEDTAVYYCARDLRPSTNSWYGYYYNAMDVWGQGTTVTVSS VL: QSVLTQPPSVSAAPGQRVTISCSGNSSNIGNNFVSWYQQLPGTAPKLLIYDNNSRPSGIPDRFSGSKSGTSATLGISGLQTGDEADYYCGSWDGSLSLWVFGGGTKLTVL
result: binds

binder: 5.6.c2798 (antibody, V domains shown) VH: QVQLQESGPGLVKPSETLSLTCTVSGGSISPDYWTWIRQPPGKGLEWIGFIYYAGGTDYNPSLKSRVTMSIDTSKKQFFLKLNSVTAADTAVYYCASGVPEDNSQILYYYYGMDVWGPGTTVTVSS VL: QSVLTQPPSVSAAPGQKVTISCSGSSPNIGNNYVSWYQQLPGTAPKLLIYDNNKRPSGIPDRFSGSKSGTSATLGITGLQTGDEADYYCGTWDRSLSAYVFGTGTKVTVL
result: binds

binder: 5.6.c2685 (antibody, V domains shown) VH: EVQLVESGGGLVQPGGSLRLSCAASGFTFSRSWMNWVRQAPGKGLEWVANIKQDGSEKYYVDSVKGRFTISRDNAKNSLYLQMNSLRAEDTGVYYCAKATVTTELTFFYYYALDVWGQGTTVTVSS VL: EIVMTQSPATLSVSPGERATLSCRASQSINNNLAWYQQKPGQAPRLLISDASTRATGVPARFSGSGSGTEFTLTISSLQSEDSAVYHCQQYNTWPPFTFGGGTKVEIK
result: binds

binder: 5.6.c2954 (antibody, V domains shown) VH: QAQLQESGPGLVKPSQTLSLTCTVSGGFSSSGGFFWSWIRQHPGKDLEWIGYIYSSGSPYYKPSLKSRVTISIDTSKNQFSLRLSSVTAADTAIYYCARGRGEMLTGYFDYWGQGKLVTVSS VL: SYVLTQPPSVSVAPGKTASITCGGNNIGSKSVHWYQQRPGQAPVLVIYYDTDRPSGIPERFSGSNSGNTATLTISRVEAGDEADYYCQVWDSSSDPLLFGGGTKLTVL
result: binds

binder: 5.6.c2644 (antibody, V domains shown) VH: QVQLVQSGAEVKKPGASVKVSCKASGYTFSNYGITWVRQAPGQGLEWMGWISAYNGNTKYAQKVQGRVTLSTDTSTSTAYMELRSLRSDDTAIYYCARDPGMITPGGVIEHWGQGTLVTVSS VL: DIQMTQSPSSLSASVGDRVTVTCRASQGISNYLAWYQQKPGKVPKLLIYAASTLHSGVPSRFSGSGSGTDFTLTISSLQPEDVATYVCHNYNNAPRTFGQGTKVEIK
result: binds

binder: 5.6.c3295 (antibody, V domains shown) VH: EVQLVESGGDLVQPGGSLRLSCAASGFTVNANYLGWVRQTPGKGLEWVSLIYSGSGSTYYADSVKGRFTLSRDSSKNTLFLHMNSLRPEDTAVYYCARAGGCGGDCYSYYFDYWGRGTLVTVSS VL: DIQMTQSPSTLSASVGDRVTITCRASQSISRWLAWYQQKPGKAPKLLIYRASSLQNGVPSRFSGSGSGTEFTLTISGLQPDDFGIYYCQEYSSRYTFGQGTQLEIK
result: binds

binder: 5.6.c4395 (antibody, V domains shown) VH: EVQLVESGGGLVQPGGSLRLSCAASGFTFSTYEMNWVRQAPGKGLEWIAFIDDGGSTINYADSVKGRFTVSRDNAKNSLYLQMNSLRADDTAIYYCARVMTTSFYYYGVDVWGQGTTVTVSS VL: DIQMTQSPSIVSASVGDRVTITCRASQGVSYWLAWYQQKPGKAPKLLIYAASSLQSGVPSRFSGSGSGTDFTLTISSLQPEDFATYYCQQAHSFPWTFGQGTKVEMK
result: binds

binder: 5.6.c2931 (antibody, V domains shown) VH: QLQLQESGPGLVKPSQTLSLTCTVAGGSISRSSYYWGWIRQSPGKGLEWIGSIHYSGSTHYNSSLRSRVTISVDTSKNQFSLNLTSVTAADTAVYYCVRQSSVPYFDWSSPGQIDPWGQGTLVTVSS VL: QLVLTQSPSASASLGASVKFTCTLSSGHRSYAIAWHQQQPEKGPRYLMKINSDGSHNKGDGIPDRFSGSSSGDERYLTISSLQSEDEADYYCQTWGTGIQVFGGGTKLTVL
result: binds

binder: 5.6.c2913 (antibody, V domains shown) VH: DVQLVESGGGLVQPGGSLRLSCVASGLTFSRDWMTWVRQAPGKGLEWVANIKQDGSEKYYLDSVKGRFTISRDNSNNALYLQMSSLRGEDTAVYYCARLHGGGFSDSDLFYYDFAMDVWGQGTTVTVSA VL: EIVMTQSPATLSVSPGERATLSCRASQSVINNLAWYQQKPGQAPRLLIYGASTRATGIPARFSGSGSGTEFTLTISNLQSEDFAVYYCQQYNNWPPLTFGGGTQVEIK
result: binds

binder: 5.6.c4392 (antibody, V domains shown) VH: QVQLVESGGGVVQPGRSLRLSCAASGFFFRNYGIHWVRQAPGKGLEWVAIISYDESKKYYADSVKGRFTISRDNSKNTLYLQMNSLRAEDTAVYYCAKAHPHSRWFFDSWGQGTLVTVSS VL: NFVLTQPHSVSDSPGKTVTISCTRSSGSIATDYVQWYQQRPGSAPTLVIYEDNQRPSGVPNRFSGSIDSSSNSASLTISGLETEDEADYYCQSYDPTNLVFGGGTKLTVL
result: binds
